EXPERIMENTAL TARGET: ROCK1 (Homo sapiens, UniProt Q13464)
Construct: purchased Upstate/Chemicon 14-601
Sequence (Q13464 17-535 limits assumed): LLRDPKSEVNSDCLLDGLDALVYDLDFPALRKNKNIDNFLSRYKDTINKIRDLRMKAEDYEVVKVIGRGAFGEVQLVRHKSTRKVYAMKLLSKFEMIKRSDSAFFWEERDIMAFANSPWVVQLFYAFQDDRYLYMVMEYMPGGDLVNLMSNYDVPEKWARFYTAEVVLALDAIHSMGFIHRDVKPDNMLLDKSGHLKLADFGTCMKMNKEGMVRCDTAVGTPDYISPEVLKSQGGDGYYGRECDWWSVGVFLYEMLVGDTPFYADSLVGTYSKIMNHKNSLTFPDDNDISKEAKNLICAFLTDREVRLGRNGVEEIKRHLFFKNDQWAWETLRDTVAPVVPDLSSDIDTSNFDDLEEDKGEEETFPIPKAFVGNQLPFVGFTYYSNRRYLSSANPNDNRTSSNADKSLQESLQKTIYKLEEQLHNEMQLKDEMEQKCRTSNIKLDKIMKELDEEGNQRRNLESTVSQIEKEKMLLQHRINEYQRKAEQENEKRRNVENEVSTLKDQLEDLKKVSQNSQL
TEST DESCRIPTION: Rho kinase inhibition assay (IMAP fluorescence polarization), ROCK1;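 note: kinase reaction run 60 min at room temperature, then phosphorylated substrate captured on IMAP beads for 30 min, with fluorescence polarization read in mP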
Type: biochemical
CONDITION NOTES: Avg, 10 μM ATP
Label key: satisfied means Ki under 100 nM; not satisfied means Ki of 100 nM or more.

>  <SMILES STRING>
OC[C@@H](O)COc1cccc(CN2CCC[C@@H](Nc3ccc4[nH]ncc4c3)C2)c1

>  <ASSIGNED LABEL>
satisfied

$$$$
>  <SMILES STRING>
FC(F)(F)c1cccc(CN2CCC[C@@H](Nc3ccc4[nH]ncc4c3)C2)c1

>  <ASSIGNED LABEL>
not satisfied

$$$$
>  <SMILES STRING>
[O-][n+]1ccc2c(N[C@@H]3CCN(Cc4cccc(OCCO)c4)C3)cccc2c1

>  <ASSIGNED LABEL>
not satisfied

$$$$
>  <SMILES STRING>
NCc1ccc(CN2CCC[C@H](Nc3ccc4[nH]ncc4c3)C2)cc1

>  <ASSIGNED LABEL>
not satisfied

$$$$
>  <SMILES STRING>
CC(=O)NCc1cccc(CN2CCC[C@@H](Nc3ccc4[nH]ncc4c3)C2)c1

>  <ASSIGNED LABEL>
not satisfied

$$$$
>  <SMILES STRING>
OCc1ccc(CN2CCC[C@@H](Nc3ccc4[nH]ncc4c3)C2)cc1

>  <ASSIGNED LABEL>
not satisfied

$$$$
>  <SMILES STRING>
c1cc(C2CC2)ccc1CN1CCC[C@@H](Nc2ccc3[nH]ncc3c2)C1

>  <ASSIGNED LABEL>
satisfied

$$$$

# ---- query compound ----
Exam item: Would you kindly verify if Ki of OCCOc1cccc(CN2CCC[C@@H](Nc3cccc4cnccc34)C2)c1 is strictly less than 100 nM?
Marked response: not satisfied

###

TEST DESCRIPTION: Rat oral pharmacokinetics (plasma)
Format: in vivo
CONDITION NOTES: male, CD Sprague Dawley, 20-30 μmol/kg, mean n = 3, read-out: Tmax
Provide the recorded Tmax for the entries that follow.
Numbers only, in min.

Some solved entries appear below for comparison.
>  <COMPOUND>
CSc1ccc(CN2CCC[C@@H](Nc3ccc4[nH]ncc4c3)C2)cc1 [Compound 1.074]

>  <REPORTED VALUE>
25.2

$$$$
>  <COMPOUND>
CS(=O)(=O)Nc1cccc(CN2CC[C@@H](Nc3cccc4cnccc34)C2)c1 [Compound 2.038]

>  <REPORTED VALUE>
30

$$$$
>  <COMPOUND>
NC(=O)Cn1ccc2ccc(CN3CCC[C@H](Nc4ccc5[nH]ncc5c4)C3)cc21 [Compound 1.107]

>  <REPORTED VALUE>
100

$$$$
>  <COMPOUND>
Cc1ccc(CN2CCC[C@H](Nc3cccc4cnccc34)C2)cc1 [Compound 2.045]

>  <REPORTED VALUE>
40.2

$$$$
>  <COMPOUND>
OCCOc1cccc(CN2CCC[C@@H](Nc3ccc4[nH]ncc4c3)C2)c1 [Compound 1.092]

>  <REPORTED VALUE>
15

$$$$
>  <COMPOUND>
CCS(=O)(=O)Nc1cccc(CN2CCC[C@H](Nc3ccc4[nH]ncc4c3)C2)c1 [Compound 1.124]

>  <REPORTED VALUE>
30

$$$$
>  <COMPOUND>
OCCOc1cccc(CN2CC[C@@H](Nc3cccc4cnccc34)C2)c1 [Compound 2.039]

>  <REPORTED VALUE>
19.8

$$$$
>  <COMPOUND>
OCCn1ccc2ccc(CN3CCC[C@@H](Nc4ccc5[nH]ncc5c4)C3)cc21 [Compound 1.108]

>  <REPORTED VALUE>
49.8

$$$$
>  <COMPOUND>
CCS(=O)(=O)Nc1cccc(CN2CCC[C@@H](Nc3ccc4[nH]ncc4c3)C2)c1 [Compound 1.123]

>  <REPORTED VALUE>
19.8

$$$$

Now look at this entry.
Exam item: Supply reported Tmax belonging to this compound: c1cc2cc(CN3CCC[C@@H](Nc4ccc5[nH]ncc5c4)C3)ccc2o1 [Compound 1.131]
Marked response: 49.8

Recorded values, source patent US20090325959A1.
